assay: Minipig PLM; conditions: 37° C., up to 2 hours
Reported Property: not cleaved (% remaining at 2 hours)

- Ac-IVLSLDvPIKLK*KILLEQEKQKKQREQAETNAibQILAQV-NH2: 110
- Ac-IVLSLDvPIKαMELK*KILLEQEKQKKQREQAETNAibQILAQV-NH2: 106
- Pentanoyl-VLSLDvPIKLK*KILLEQEKQKKQREQAETNAibQILAQV-NH2: 104
- Ac-IVLSLDvPIKLK*KILLEQEKQKKQREQAETNAbuQILAQV-NH2: 97
- NMeIVLSLDvPIKLK*KILLEQEKQKKQREQAETNAibQILAQV-NH2: 126

---

test: Rat PLM; settings: male Sprague Dawley rats, 37° C., up to 2 hours
Reported Property: not cleaved (% remaining at 2 hours)

- Pentanoyl-VLSLDvPIKLK*KILLEQEKQKKQREQAETNAibQILAQV-NH2: 98
- NMeIVLSLDvPIKLK*KILLEQEKQKEQREQAETNAibQILAQV-NH2 [233]: 106
- Ac-IVLSLDvPIKLK*KILLEQEKQKEQREQAETNAibQILAQV-NH2: 99
- NMeIVLSLDvPIKLK*KILLEQEKQKKQREQAETNAibQILAQV-NH2: 128
- NMeIVLSLDvPIKLK*KILLEQEKQKEQREQAETNAibQILAQV-NH2 [218]: 109
- Ac-IVLSLDvPIKLK*KILLEQEKQKKQREQAETNAibQILAQV-NH2: 108
- Ac-IVLSLDvPIKLK*KILLEQEKQKKQREQAETN4-PipQILAQV-NH2: 96
- Ac-IVLSLDvPIKαMELK*KILLEQEKQKKQREQAETNAibQILAQV-NH2: 95
